Molecular target: IRAK1 (His-TEV-IRAK1 (194-712)) (Homo sapiens)
Construct: His-TEV-IRAK1 (194-712); His (N); TEV cleavage site (N)
Sequence (P51617 194-712): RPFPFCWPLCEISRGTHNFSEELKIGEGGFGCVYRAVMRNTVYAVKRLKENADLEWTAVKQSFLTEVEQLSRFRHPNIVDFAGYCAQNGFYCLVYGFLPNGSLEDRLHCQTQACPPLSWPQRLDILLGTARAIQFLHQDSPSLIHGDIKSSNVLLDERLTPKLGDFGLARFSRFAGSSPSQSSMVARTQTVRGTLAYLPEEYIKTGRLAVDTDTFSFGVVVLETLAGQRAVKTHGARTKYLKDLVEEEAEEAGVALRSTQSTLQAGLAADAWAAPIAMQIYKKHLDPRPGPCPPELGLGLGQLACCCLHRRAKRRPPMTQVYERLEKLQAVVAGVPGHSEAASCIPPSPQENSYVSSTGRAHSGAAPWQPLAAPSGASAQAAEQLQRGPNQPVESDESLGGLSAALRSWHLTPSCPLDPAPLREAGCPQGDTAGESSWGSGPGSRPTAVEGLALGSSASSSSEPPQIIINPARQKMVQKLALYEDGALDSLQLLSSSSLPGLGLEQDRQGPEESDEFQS
Assay: IRAK1 enzymatic assay
Details: human recombinant His-TEV-IRAK1, ATP 1 μM, 3 hours at 30° C., FlashPlate
MEASURED_QUANTITY: IC50

Example entries begin here.
COMPOUND | TEST_SYSTEM | IC50
Cn1cc(-c2cccc(-c3ncc(-c4cnn(C5CCCN(C(=O)OC(C)(C)C)C5)c4)cn3)c2)cn1 (centres unmarked) [Compound 7] | IRAK1 (His-TEV-IRAK1 (194-712)) (Homo sapiens) | 0.1 to 1 µM
Cn1cc(-c2cccc(-c3ncc(-c4cnn(C5CCCC(O)(CO)C5)c4)cn3)c2)cn1 (centres unmarked) [Compound 1] | IRAK1 (His-TEV-IRAK1 (194-712)) (Homo sapiens) | 0.1 to 1 µM
O[C@H]1CC[C@H](n2cc(-c3cnc(-c4cccc(-c5cnn(CCN6CCOCC6)c5)c4)nc3)cn2)CC1 [Compound 30] | IRAK1 (His-TEV-IRAK1 (194-712)) (Homo sapiens) | 1 to 20 µM
Cn1cc(-c2cccc(-c3ncc(-c4cnn(C5CCCC(C(=O)O)C5)c4)cn3)c2)cn1 (mixture of isomers) [Compound 41] | IRAK1 (His-TEV-IRAK1 (194-712)) (Homo sapiens) | 1 to 20 µM
CN(C)C/C=C/C(=O)N1CCC(n2cc(-c3cnc(-c4cccc(-c5cnn(C)c5)c4)nc3)cn2)CC1 [Compound 47] | IRAK1 (His-TEV-IRAK1 (194-712)) (Homo sapiens) | 0.1 to 1 µM
Cn1cc(-c2cccc(-c3ncc(-c4cnn(C5CCN(C(=O)/C(C#N)=C\C6CC6)CC5)c4)cn3)c2)cn1 [Compound 46] | IRAK1 (His-TEV-IRAK1 (194-712)) (Homo sapiens) | < 0.1 µM
Cn1cc(-c2cccc(-c3ncc(-c4cnn(C5CCN(C#N)CC5)c4)cn3)c2)cn1 [Compound 45] | IRAK1 (His-TEV-IRAK1 (194-712)) (Homo sapiens) | 0.1 to 1 µM

Next item in the queue.
# input compound: C=CS(=O)(=O)N[C@H]1CCC[C@H](n2cc(-c3cnc(-c4cccc(-c5cnn(C)c5)c4)nc3)cn2)C1 (relative stereo) [Compound 37] ; wanted: its IC50 < 0.1 µM

====

Biological target: IRAK1 (His-TEV-IRAK1 (194-712)) (Homo sapiens)
Construct: His-TEV-IRAK1 (194-712); His (N); TEV cleavage site (N)
Assay: IRAK1 enzymatic assay
Conditions: human recombinant His-TEV-IRAK1, ATP 1 μM, 3 hours at 30° C., FlashPlate
Recorded IC50 for the following molecules

Requested field: IC50. Item: Cn1cc(-c2cccc(-c3ncc(-c4cnn(C5CCCNC(=O)C5)c4)cn3)c2)cn1 (stereo not drawn) [Compound 23] 0.1 to 1 µM

Please look up its IC50: CC(=O)N1CCC(n2cc(-c3cnc(-c4cccc(-c5cnn(C)c5)c4)nc3)cn2)C(CO)C1 (mixture of isomers) [Compound 22] 0.1 to 1 µM
